Test system: LG0567-F671-PDC complex spheroids viability;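 also: spheroids exposed to compound for seven days before readout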
Assay: Anticancer human tumor LG0567-F671-PDC patient-derived lung adenocarcinoma cell line growth inhibition [RAS]
Settings: second compound 0.01 µM; first compound 0.1 µM; active compounds read low
observation_type: viability, T/C (%)
One number for each entry, in %.

Before answering, review these 2 worked examples.
CCC(CC)c1cc(NC2CCC(N)C2)n2nccc2n1 (stereo not drawn) + C=CC(=O)N1CCN(c2nc(OCC3CCCN3C)nc3c(F)c(-c4nc(N)cc(C)c4C(F)(F)F)c(Cl)cc23)C(C)C1 :: 13.4
Cc1nc(N2CCC3(CC2)COC(C)C3N)c(CO)nc1Sc1ccnc(N)c1Cl (stereo not drawn) + C=CC(=O)N1CCN(c2nc(OCC3CCCN3C)nc3c(F)c(-c4nc(N)cc(C)c4C(F)(F)F)c(Cl)cc23)C(C)C1 :: 6.73

For the next question, use this molecule.
Recall the recorded viability, T/C for CC(C)NCC(C(=O)N1CCN(c2ncnc3c2C(C)CC3O)CC1)c1ccc(Cl)cc1 (stereo not drawn) + C=CC(=O)N1CCN(c2nc(OCC3CCCN3C)nc3c(F)c(-c4nc(N)cc(C)c4C(F)(F)F)c(Cl)cc23)C(C)C1 with LG0567-F671-PDC complex spheroids viability and state it.
11.4
